Numbers sourced from paper PMC9995496.

# System: PRKACA-PRKAR2A interaction (SmBiT-PRKACA / LgBiT-PRKAR2A), protein kinase A
# Parameters: NanoLuc complementation counter-screen in cell extract, PRKACA with PRKAR2A, loss of luminescence, detects NanoLuc interference
# condition_info: counter-screen for NanoLuc interference; 0.5 h, 20 µM; inhibitor
Where a name gives a salt, the structure may show the parent alone.
reported_metric: Inh (PKA) (%)
Give just the numeric value; % need not be written.

What Inh (PKA) value was documented for this compound, O=C(O[C@H]1C[N+]2(CCCOc3ccccc3)CCC1CC2)C(O)(c1cccs1)c1cccs1 [UM0142325:01, Aclidinium Bromide] ?
1.77

Now this one: `Cc1c(-c2c(-c3ccc(F)o3)sc3ncnc(O[C@H](Cc4ccccc4OCc4ccnn4CC(F)(F)F)C(=O)O)c23)ccc(OCCN2CCN(C)CC2)c1Cl`
20.59

Now this one: `CS(=O)(=O)c1ccc(C2=C(c3ccccc3)C(=O)OC2)cc1`
1.384

Now this one: `O=C(NCc1cccc(O)c1)c1cc2cc(F)ccc2[nH]1`
5.75

Now this one: CC[C@H](CO)Nc1nc(NCc2ccccc2)c2ncn(C(C)C)c2n1 [UM0127958:02, Roscovitine (Seliciclib,CYC202)]
10.31

Now this one: `CNC(=O)[C@@H](NC(=O)[C@H](CC(C)C)[C@H](O)C(=O)NO)C(C)(C)C`
0.03588

Now this one: `COc1ccc(-c2cc3c(C)nc(N)nc3n([C@H]3CC[C@H](OCCO)CC3)c2=O)cn1`
7.804

Now this one: `CN1C(C(=O)Nc2ccccn2)=C(O)c2sc(Cl)cc2S1(=O)=O`
33.4

Now this one: CC(C)(C)NC(=O)[C@@H]1C[C@@H]2CCCC[C@@H]2CN1C[C@@H](O)[C@H](Cc1ccccc1)NC(=O)[C@H](CC(N)=O)NC(=O)c1ccc2ccccc2n1 [UM0141624:01, Saquinavir mesylate]
9.291

Now this one: CO/N=C(\C(=O)N[C@@H]1C(=O)N2C(C(=O)O)=C(CSc3nc(=O)c(O)nn3C)CS[C@H]12)c1csc(N)n1 [UM0142345:01, Ceftriaxone Sodium Trihydrate]
3.455
